Reference source for all entries: the supplement of paper PMC7877785

Experiment: self-splicing fitness, log relative to wild type (ln ratio); higher = more splicing; Tetrahymena group I intron in knt gene, E. coli kanamycin selection, DiMSum; sequences stand for … in CUCUCU…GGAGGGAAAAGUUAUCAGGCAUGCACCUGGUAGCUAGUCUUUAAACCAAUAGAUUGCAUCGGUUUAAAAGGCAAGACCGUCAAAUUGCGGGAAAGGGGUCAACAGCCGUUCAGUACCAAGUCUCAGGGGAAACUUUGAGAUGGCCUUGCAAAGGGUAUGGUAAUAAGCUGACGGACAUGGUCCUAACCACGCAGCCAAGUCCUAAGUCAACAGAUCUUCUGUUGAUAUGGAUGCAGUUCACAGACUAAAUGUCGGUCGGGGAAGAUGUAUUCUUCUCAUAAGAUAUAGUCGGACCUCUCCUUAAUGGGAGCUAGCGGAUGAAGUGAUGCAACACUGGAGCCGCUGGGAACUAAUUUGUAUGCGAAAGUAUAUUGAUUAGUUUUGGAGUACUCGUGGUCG;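 note: selection with 25 µg/mL kanamycin versus none on LB agar overnight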
Settings: 37 °C
METRIC NAME: self-splicing fitness (ln)
One number for each entry.

BIOSEQUENCE: UGUUAGCAAUAUUACGAACC
self-splicing fitness (ln): 0.133
//
BIOSEQUENCE: UAGAAGCAAUAUUACGGUCA
self-splicing fitness (ln): -0.338
//
BIOSEQUENCE: UCCUAGCAAUAUUACGGCUU
self-splicing fitness (ln): -2.47
//
BIOSEQUENCE: CCGCAGCAAUAUUACGCCCG
self-splicing fitness (ln): 0.732
//
BIOSEQUENCE: CAUCAGCAAUAUUACGGUCC
self-splicing fitness (ln): -0.885

Fill in self-splicing fitness (ln) for each of the 6 sequences listed.
1. UACGAGCAAUAUUACGAUGA
2. UUCCAGCAAUAUUACGGUCU
3. AGUCAGCAAUAUUACGCGUA
4. CUAAAGCAAUAUUACGACUU
5. CGCUAGCAAUAUUACGCCAG
6. UCCAAGCAAUAUUACGCCGU

Reply:
-2.41
-2.13
0.106
-3.47
-2.81
-0.0434

Fill in self-splicing fitness (ln) for each of the 6 sequences listed.
1. UGAUAGCAAUAUUACGUGAA
2. GAUUAGCAAUAUUACGUCUA
3. GUUCAGCAAUAUUACGAGGU
4. CCGCAGCAAUAUUACGGUUG
5. ACUGAGCAAUAUUACGAUAG
6. CCCCAGCAAUAUUACGUCAG

Reply:
1. -1.7
2. -0.229
3. -0.472
4. -1.24
5. -1.78
6. -1.36

Fill in self-splicing fitness (ln) for each of the 5 sequences listed.
1. CUGCAGCAAUAUUACGUGAG
2. AUCGAGCAAUAUUACGAACU
3. CCUAAGCAAUAUUACGCUUG
4. GCUGAGCAAUAUUACGCUAG
5. GACUAGCAAUAUUACGCUGU

Reply:
1: 0.216; 2: -0.725; 3: -2.98; 4: -1.27; 5: -2.83

* * *

Experiment: self-splicing fitness, log relative to wild type (ln ratio); higher = more splicing; Tetrahymena group I intron in knt gene, E. coli kanamycin selection, DiMSum; sequences stand for … in CUCUCU…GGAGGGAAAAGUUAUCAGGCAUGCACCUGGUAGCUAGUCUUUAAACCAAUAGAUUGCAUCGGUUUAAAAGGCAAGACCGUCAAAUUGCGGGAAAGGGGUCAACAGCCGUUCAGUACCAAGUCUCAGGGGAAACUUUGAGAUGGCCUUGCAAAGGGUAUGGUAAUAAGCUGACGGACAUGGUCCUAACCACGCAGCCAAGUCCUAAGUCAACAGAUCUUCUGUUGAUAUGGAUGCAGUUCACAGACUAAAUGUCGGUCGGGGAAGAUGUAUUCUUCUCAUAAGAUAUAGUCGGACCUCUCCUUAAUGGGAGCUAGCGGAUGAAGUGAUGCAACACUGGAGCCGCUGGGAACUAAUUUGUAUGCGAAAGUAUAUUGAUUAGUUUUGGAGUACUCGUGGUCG
Settings: 30 °C
Answer each item with its documented self-splicing fitness (ln).
Answers are plain numbers.

BIOSEQUENCE: GAUAAGCAAUAUUACGUCUU
self-splicing fitness (ln): -0.224

BIOSEQUENCE: ACUCAGCAAUAUUACGCUGA
self-splicing fitness (ln): -3.74

BIOSEQUENCE: GAGGAGCAAUAUUACGCGCU
self-splicing fitness (ln): -3.28

Fill in self-splicing fitness (ln) for each of the 4 sequences listed.
1. AUGGAGCAAUAUUACGAUGU
2. AUGCAGCAAUAUUACGAGAC
3. UGAAAGCAAUAUUACGGGGG
4. ACAAAGCAAUAUUACGUGCU

Reply:
1. -1.25
2. -3.17
3. -2.07
4. -0.981
